test: method code SF-AS, from DOI: 10.1080/09553007914550151, PMID: 312783; settings: pH 7.4
measure: logD

Below, 6 compounds whose answers are already recorded.
O=[N+]([O-])c1nccn1CCS(=O)(=O)c1ccccc1 | 0.52
CCOCCn1ccnc1[N+](=O)[O-] | 0.53
O=[N+]([O-])c1cn(CCN2CCOCC2)cn1 | -0.38
COCC(O)Cn1cc([N+](=O)[O-])nc1C (stereo not given) | -0.36
COCc1ccc([N+](=O)[O-])o1 | 0.89
CC(C)OCC(O)Cn1ccnc1[N+](=O)[O-] (stereo not given) | 0.51

For this compound ( Cn1c(C(C)(C)O)cnc1[N+](=O)[O-] ), measured logD is 0.43

Recorded logD (compound C=Cc1cnc([N+](=O)[O-])n1C ): 0.64

The recorded logD for COC(=O)Cn1ccnc1[N+](=O)[O-] is -0.09

In plain terms, O=[N+]([O-])c1nccn1CCOc1ccccc1 has a documented logD of 1.89

* * *

test: method code SF-AS, from DOI: 10.1080/09553007914550151, PMID: 312783; conditions: pH 7.4
Tag: 1 (yes) if measured logD is not below 0.1, 0 (no) if it is.

Answered examples (5):
COCCn1ccnc1[N+](=O)[O-] | 1 (yes)
O=[N+]([O-])c1nccn1CCCOc1ccccc1 | 1 (yes)
CS(=O)(=O)CCn1ccnc1[N+](=O)[O-] | 0 (no)
CC(=O)Cn1ccnc1[N+](=O)[O-] | 0 (no)
COC(=O)c1cnc([N+](=O)[O-])n1C | 1 (yes)

Req: Evaluate Cn1c(CO)cnc1[N+](=O)[O-] : logD at minimum 0.1?
Resp: 0 (no)

Req: Item O=[N+]([O-])c1nccn1CCN1CCOCC1 with logD of 0.1 or above?
Resp: 0 (no)
